This collection of values is drawn from patent US6369088B2.

In this section we review reported melting point values for a set of compounds.
Reply numerically in °C, unit not repeated.

COc1nn(-c2ccc(NC(=O)C(C)(C)Oc3ccc(Cl)cc3)cc2)c(=O)o1: 153
COc1nn(-c2ccc(NC(=O)C(C)(C)C)c(C)c2)c(=O)o1: 157
COc1nn(-c2ccc([N+](=O)[O-])cc2Cl)c(=O)o1: 92
COc1nn(-c2ccc(NS(=O)(=O)Cc3ccccc3)cc2)c(=O)o1: 153
COc1nn(-c2ccc(NS(=O)(=O)c3ccc(Cl)cc3)cc2)c(=O)o1: 169
COc1nn(-c2cccc(N(Cc3ccccc3)Cc3ccccc3)c2)c(=O)o1: 71
Cc1cc(-n2nc(OC(C)C)oc2=O)ccc1NC(=O)Nc1cccc(Cl)c1: 201
COc1nn(-c2ccc(NC(=O)NCc3cccnc3)c(C)c2)c(=O)o1: 229
COc1nn(-c2ccc(NC(=O)c3ccc(Cl)c(Cl)c3)cc2)c(=O)o1: 200
COc1nn(-c2ccc(NC(=O)Cc3ccc(Cl)cc3)c(OCc3ccc(F)cc3)c2)c(=O)o1: 167

Given the entry COc1nn(-c2ccc(NC(=O)OCC(F)(F)F)c(C)c2)c(=O)o1 , report its measured melting point. 141

Given the entry CCCCCCCc1ccc(C(=O)Nc2ccc(-n3nc(OC)oc3=O)cc2)cc1 , report its measured melting point. 155

Given the entry COc1nn(-c2ccc(N)cc2Cl)c(=O)o1 , report its measured melting point. 126

Given the entry CCCCOC(=O)Nc1ccc(-n2nc(OC(C)C)oc2=O)cc1C , report its measured melting point. 114

Given the entry COc1nn(-c2ccc(NC(=O)OCc3ccc(Cl)cc3)cc2)c(=O)o1 , report its measured melting point. 177

Given the entry COc1nn(-c2ccc(NS(=O)(=O)C(C)C)cc2)c(=O)o1 , report its measured melting point. 190
